For each record, write down the corresponding IC50.
target: Human thrombin (Homo sapiens); construct: converts prothrombin (II) to thrombin (IIa); purchased Calbiochem, La Jolla, Calif; experiment: Thrombin assay (chromogenic substrate); assay type: biochemical; conditions: reported only as less than or greater than 30 uM; read-out: Thrombin (II) IC50

Molecule | IC50
CC(C)Nc1ncc(-c2cc(N)c3[nH]ccc3c2)n(CC(=O)NCc2ccc(C(=N)N)cc2)c1=O.O=C(O)C(F)(F)F.O=C(O)C(F)(F)F [Example 249] | > 30 µM

Need IC50 for each of these molecules.
1. COc1cc(N)cc(-c2cnc(NC(C)C)c(=O)n2CC(=O)NCc2ccc(C(=N)N)cc2)c1 [Example 53]
2. CC(C)Nc1ncc(-c2cc(N)cc(C(=O)NCCc3ccc(F)cc3)c2)n(CC(=O)NCc2ccc(C(=N)N)cc2)c1=O [Example 33]
3. CC(C)Nc1ncc(-c2cc(N)cc(NCCCc3ccccc3)c2)n(CC(=O)NCc2ccc(C(=N)N)cc2)c1=O [Example 111]
4. CC(C)Nc1ncc(-c2cc(N)cc(C(=O)NC(C)c3ccccc3)c2)n(CC(=O)NCc2ccc(C(=N)N)cc2)c1=O (racemic) [Example 56]

## Output
["> 30 µM", "> 30 µM", "> 30 µM", "< 30 µM"]

Provide each entry's IC50 from the list below.
1. CC(C)Nc1ncc(-c2cc(N)cc(C(=O)NCc3ccc(F)c(O)c3)c2)n(CC(=O)NCc2ccc(C(=N)N)cc2)c1=O.O=C(O)C(F)(F)F [Example 186]
2. CC[C@H](C)NC(=O)c1cc(N)cc(-c2cnc(NC(C)C)c(=O)n2CC(=O)NCc2c(OC)cc(C(=N)N)cc2OC)c1 [Example 196]

## Output
1: > 30 µM; 2: > 30 µM

Hi! Can you tell me IC50 for each of these molecules?
1. COCCOc1cc(N)cc(-c2cnc(NC(C)C)c(=O)n2CC(=O)NCc2ccc(C(=N)N)cc2)c1.O=C(O)C(F)(F)F.O=C(O)C(F)(F)F [Example 219]
2. CCCCS(=O)(=O)c1cc(N)cc(-c2cnc(NC(C)C)c(=O)n2CC(=O)NCc2ccc(C(=N)N)cc2)c1.O=C(O)C(F)(F)F.O=C(O)C(F)(F)F [Example 230]
3. CC(C)Nc1ncc(-c2cc(N)cc(C(=O)NCc3ccc(F)cc3)c2)n(CC(=O)NCc2ccc(C(=N)N)c(O)c2)c1=O.O=C(O)C(F)(F)F [Example 162]
4. CC(C)Nc1ncc(-c2cc(N)cc(NC(=O)CC(C)(C)C)c2)n(CC(=O)NCc2ccc(C(=N)N)cc2)c1=O.O=C(O)C(F)(F)F.O=C(O)C(F)(F)F [Example 133]
5. CCCCCC(C)C(=O)Nc1cc(N)cc(-c2cnc(NC(C)C)c(=O)n2CC(=O)NCc2ccc(C(=N)N)cc2)c1 (stereo not shown) [Example 138]

## Output
1: > 30 µM; 2: > 30 µM; 3: > 30 µM; 4: < 30 µM; 5: < 30 µM
